// values below are reported melting point

Example entries begin here.
>  <COMPOUND>
CSc1ccc(CC(=O)NC(NC(=NC#N)Nc2cccnc2C)C(C)(C)C)cc1 (stereo not shown)

>  <melting point>
172 to 173 °C

$$$$
>  <COMPOUND>
Cc1ncccc1NC(=NC#N)NC(NC(=O)CCCCc1ccccc1)C(C)(C)C (stereo not shown)

>  <melting point>
133 to 134 °C

$$$$
>  <COMPOUND>
Cc1ccccc1NC(=NC#N)NC(NC(=O)CCCc1ccccc1)C(C)(C)C (stereo not shown)

>  <melting point>
153 to 154 °C

$$$$

Now examine the next entry.
Reported melting point, compound CC(C)(C)C(NC(=O)Cc1ccc2cccnc2c1)NC(=NC#N)Nc1cccc2ncccc12 (stereo not shown) : ____ 147 to 148 °C

----------
// values below are reported melting point

Example entries begin here.
>  <COMPOUND>
CC(C)(C)C(NC(=O)Cc1ccc(Cl)cc1)NC(=NC#N)Nc1cccnc1Cl (centres unmarked)

>  <OBS VALUE>
174 to 175 °C

$$$$
>  <COMPOUND>
CC(C)(C)C(NC(=O)Cc1ccc(Cl)cc1)NC(=NC#N)Nc1cccc2ncccc12 (centres unmarked)

>  <OBS VALUE>
195 to 196 °C

$$$$
>  <COMPOUND>
CC(C)(C)C(NC(=O)Cc1ccc2c(c1)OCCO2)NC(=NC#N)Nc1cccc2ncccc12 (centres unmarked)

>  <OBS VALUE>
191 to 192 °C

$$$$
>  <COMPOUND>
Cc1ccccc1NC(=NC#N)NC(NC(=O)Cc1ccc(Cl)cc1)C(C)(C)C (centres unmarked)

>  <OBS VALUE>
181 to 182 °C

$$$$
>  <COMPOUND>
CSc1ccc(CC(=O)NC(NC(=NC#N)Nc2cccc3ncccc23)C(C)(C)C)cc1 (centres unmarked)

>  <OBS VALUE>
188 to 189 °C

$$$$
>  <COMPOUND>
CN1CCCc2c(NC(=NC#N)NC(NC(=O)Cc3ccc(Cl)cc3)C(C)(C)C)cccc21 (centres unmarked)

>  <OBS VALUE>
114 to 117 °C

$$$$
>  <COMPOUND>
COc1cc(OC)cc(C(=O)NC(NC(=NC#N)Nc2cccnc2OC)C(C)(Cl)Cl)c1 (centres unmarked)

>  <OBS VALUE>
198 to 199 °C

$$$$

Now examine the next entry.
Reported melting point, compound COc1ccc(CCCC(=O)NC(NC(=NC#N)Nc2cccnc2C)C(C)(C)C)cc1 (centres unmarked) : ____ 65 to 68 °C

----------
METRIC NAME: melting point

>  <MOLECULE>
COc1ccc(CC(=O)NC(NC(=NC#N)Nc2ccccc2C)C(C)(C)C)cc1 (centres unmarked)

>  <melting point>
174 °C

$$$$
>  <MOLECULE>
Cc1ncccc1NC(=NC#N)NC(NC(=O)Cc1ccc(F)c(F)c1)C(C)(C)C (centres unmarked)

>  <melting point>
58 to 60 °C

$$$$
>  <MOLECULE>
Cc1ccc(CC(=O)NC(NC(=NC#N)Nc2cccnc2C)C(C)(C)C)cc1F (centres unmarked)

>  <melting point>
75 to 77 °C

$$$$
>  <MOLECULE>
CCc1ncccc1NC(=NC#N)NC(NC(=O)Cc1ccc(Cl)cc1)C(C)(C)C (centres unmarked)

>  <melting point>
112 to 114 °C

$$$$
>  <MOLECULE>
COc1ccc(NC(=NC#N)NC(NC(=O)c2ccc(Cl)cc2)C(C)(Cl)Cl)c(OC)n1 (centres unmarked)

>  <melting point>
162 to 163 °C

$$$$
>  <MOLECULE>
CSc1ccc(CC(=O)NC(NC(=NC#N)Nc2ccccc2C)C(C)(C)C)cc1 (centres unmarked)

>  <melting point>
151 to 152 °C

$$$$
>  <MOLECULE>
COc1ccc(NC(=NC#N)NC(NC(=O)Cc2ccc(OC)c(OC)c2)C(C)(C)C)c(OC)n1 (centres unmarked)

>  <melting point>
162 to 163 °C

$$$$
>  <MOLECULE>
Cc1ncccc1NC(=NC#N)NC(NC(=O)CCCc1cccs1)C(C)(C)C (centres unmarked)

>  <melting point>
66 to 68 °C

$$$$
>  <MOLECULE>
CC(C)(C)C(NC(=O)Cc1ccc2ncccc2c1)NC(=NC#N)Nc1cccc2ncccc12 (centres unmarked)

>  <melting point>
150 to 151 °C

$$$$
>  <MOLECULE>
CC(C)(C)C(NC(=O)Cc1ccc(Cl)cc1)NC(=NC#N)Nc1cccc2cnsc12 (centres unmarked)

>  <melting point>
135 to 137 °C

$$$$

Now examine the next entry.
Reported melting point, molecule COc1ccc(CC(=O)NC(NC(=NC#N)Nc2cc(Cl)ccc2F)C(C)(C)C)cc1OC (centres unmarked) : ____ 187 to 188 °C
